- test_details: Intrinsic dissolution rate, Rotation Disc Method (USP 1087)
- Type: physicochemical
- measurement_context: Phosphate, pH 3, chloride 0.1 M, 37° C., 100 rpm, average of two measurements
Counter-ions that a name gives are not always drawn.
Can you tell me intrinsic dissolution rate (IDR) for the items I'm about to list?
Your answer should be a plain number; it is taken to be in μmol/min * cm^2.

[Q] Dear colleague, I am looking for the recorded intrinsic dissolution rate (IDR) of the following compound: C[C@H](O)C(=O)O.O=C(c1ccc(OCCN2CCCCC2)cc1)c1c(-c2ccc(O)cc2)sc2cc(O)ccc12 [L-Lactate ¼-hydrate]
[A] 0.0067

[Q] Dear colleague, I am looking for the recorded intrinsic dissolution rate (IDR) of the following compound: C[C@H](O)C(=O)O.O=C(c1ccc(OCCN2CCCCC2)cc1)c1c(-c2ccc(O)cc2)sc2cc(O)ccc12 [L-lactate hemihydrate]
[A] 0.0403

[Q] Dear colleague, I am looking for the recorded intrinsic dissolution rate (IDR) of the following compound: CC(O)C(=O)O.O=C(c1ccc(OCCN2CCCCC2)cc1)c1c(-c2ccc(O)cc2)sc2cc(O)ccc12 [DL-lactate hemihydrate]
[A] 0.0062

[Q] Dear colleague, I am looking for the recorded intrinsic dissolution rate (IDR) of the following compound: O=C(c1ccc(OCCN2CCCCC2)cc1)c1c(-c2ccc(O)cc2)sc2cc(O)ccc12 [Hydrochloride, raloxifene hydrochloride, reference compound]
[A] 0.0022

[Q] Dear colleague, I am looking for the recorded intrinsic dissolution rate (IDR) of the following compound: O=C(O)CC(=O)O.O=C(c1ccc(OCCN2CCCCC2)cc1)c1c(-c2ccc(O)cc2)sc2cc(O)ccc12 [Malonate]
[A] 0.0148

----------
- test_details: Intrinsic dissolution rate, Rotation Disc Method (USP 1087)
- Format: physicochemical
- measurement_context: Phosphate, pH 5, chloride 0.1 M, 37° C., 100 rpm, average of two measurements
Structures can show the parent of a compound that is named as a salt.
Decide using intrinsic dissolution rate (IDR) alone. Strictly below 0.01 μmol/min * cm^2: fulfilled. Equal to or above 0.01 μmol/min * cm^2: not fulfilled.

[Q] State whether 0.01 μmol/min * cm^2 exceeds intrinsic dissolution rate (IDR) recorded for O=C(c1ccc(OCCN2CCCCC2)cc1)c1c(-c2ccc(O)cc2)sc2cc(O)ccc12 [Hydrochloride, raloxifene hydrochloride, reference compound] .
[A] fulfilled

[Q] State whether 0.01 μmol/min * cm^2 exceeds intrinsic dissolution rate (IDR) recorded for CC(O)C(=O)O.O=C(c1ccc(OCCN2CCCCC2)cc1)c1c(-c2ccc(O)cc2)sc2cc(O)ccc12 [DL-lactate hemihydrate] .
[A] not fulfilled

[Q] State whether 0.01 μmol/min * cm^2 exceeds intrinsic dissolution rate (IDR) recorded for C[C@H](O)C(=O)O.O=C(c1ccc(OCCN2CCCCC2)cc1)c1c(-c2ccc(O)cc2)sc2cc(O)ccc12 [L-lactate hemihydrate] .
[A] fulfilled

[Q] State whether 0.01 μmol/min * cm^2 exceeds intrinsic dissolution rate (IDR) recorded for C[C@H](O)C(=O)O.O=C(c1ccc(OCCN2CCCCC2)cc1)c1c(-c2ccc(O)cc2)sc2cc(O)ccc12 [L-Lactate ¼-hydrate] .
[A] not fulfilled

[Q] State whether 0.01 μmol/min * cm^2 exceeds intrinsic dissolution rate (IDR) recorded for O=C(O)CC(=O)O.O=C(c1ccc(OCCN2CCCCC2)cc1)c1c(-c2ccc(O)cc2)sc2cc(O)ccc12 [Malonate] .
[A] not fulfilled
